Numbers sourced from ChEMBL document CHEMBL2218924.

# assayed-system: Serine/threonine-protein kinase ULK3 (Homo sapiens) (UniProt Q6PHR2)
# Sequence (Q6PHR2 whole entry): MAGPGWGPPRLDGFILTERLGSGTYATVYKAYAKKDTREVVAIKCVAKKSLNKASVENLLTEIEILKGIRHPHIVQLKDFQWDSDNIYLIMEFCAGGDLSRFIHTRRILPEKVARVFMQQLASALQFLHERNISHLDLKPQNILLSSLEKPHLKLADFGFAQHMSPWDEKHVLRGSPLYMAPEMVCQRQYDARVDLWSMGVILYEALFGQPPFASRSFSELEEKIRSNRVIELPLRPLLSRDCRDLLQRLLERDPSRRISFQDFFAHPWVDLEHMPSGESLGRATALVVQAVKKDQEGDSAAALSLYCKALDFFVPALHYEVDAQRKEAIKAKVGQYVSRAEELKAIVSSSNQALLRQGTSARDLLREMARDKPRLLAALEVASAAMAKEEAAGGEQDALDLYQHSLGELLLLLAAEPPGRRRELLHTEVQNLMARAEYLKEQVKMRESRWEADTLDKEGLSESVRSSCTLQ
# details: at 10 µM
Classify on residual activity using I (below 20%), II (20% to below 80%), III (80% or more)

> print(dat)
                     structure.smiles  qualitative.label
1  NC(=O)Nc1sc(-c2ccc(F)cc2)cc1C(N)=O                 II

[ask] Exercise: read the entry CC(C)N(CCC(=O)c1ccc2ccccc2c1)Cc1ccccc1 and state which class it falls under.
[reply] III

[ask] Note, next up: O=C1NC(=O)C(c2cn(CCCO)c3ncccc23)=C1c1cnccn1
[reply] III

[ask] // next record NC(=O)c1cccc(-c2cc(Nc3ccc(OC(F)(F)F)cc3)ncn2)c1
[reply] III
